// note: pIC50 values for UniProt:P49759 were reported in different studies
pIC50: −log10 of the molar value.

1) CC(=O)N1CCOc2c(cnn2C)-c2ccc3[nH]nc(c3c2)/C=C/c2c(nn(C)c2C)C1 : 9.62
2) COc1cc(S(=O)(=O)N2CCOCC2)ccc1Nc1nc(NC2CCCCC2)c2c(C#N)c[nH]c2n1 : 6.00 to 6.52
3) COC[C@@H](C)Nc1cc(Nc2ccc(S(=O)(=O)N3CCC(N4CCOCC4)CC3)cc2OC)nc2[nH]cc(C(F)(F)F)c12 : 6.00 to 6.52
4) COc1cc(S(=O)(=O)N2CCC(N3CCOCC3)CC2)ccc1Nc1nc(NC(C)C)c2c(C#N)c[nH]c2n1 : 6.52 to 7.00
5) COc1cc(S(=O)(=O)N2CCC(N3CCOCC3)CC2)ccc1Nc1nc(NCC2CCCC2)c2c(C#N)c[nH]c2n1 : 6.00 to 6.52

IN: What value of pIC50 has been recorded for this entry: "CCCNc1nc(Nc2ccc(S(C)(=O)=O)cc2OC)nc2[nH]cc(C(F)(F)F)c12"
OUT: 6.00 to 6.52

IN: Next compound up: "CNc1cc(Nc2ccc(S(=O)(=O)N3CCOCC3)cc2OC)nc2[nH]cc(C(F)(F)F)c12"
OUT: 6.00 to 6.52

* * *

// note: pIC50 values for UniProt:P49759 were reported in different studies
pIC50: −log10 of the molar value.

1) COc1cc(S(=O)(=O)N2CCC(N3CCOCC3)CC2)ccc1Nc1nc(NC2CCCC2)c2c(C#N)c[nH]c2n1 : 6.00 to 6.52
2) CC(C)Oc1nn(CCO)c2c1/C=C/c1n[nH]c3cc(F)c(cc13)-c1cnn(C)c1O[C@@H](C)CN(C)C2 : 9.06
3) CCNc1cc(Nc2ccc(S(=O)(=O)N3CCC(N4CCOCC4)CC3)cc2OC)nc2[nH]ccc12 : 6.00 to 6.52
4) COCC(C)(C)Nc1nc(Nc2ccc(S(=O)(=O)N3CCOCC3)cc2OC)nc2[nH]cc(C(F)(F)F)c12 : 6.00 to 6.52

IN: What value of pIC50 has been recorded for this entry: "COc1cc(S(C)(=O)=O)ccc1Nc1nc(N[C@H]2CCOC2)c2c(C(F)(F)F)c[nH]c2n1"
OUT: > 7.00

IN: Next compound up: "COc1cc(S(=O)(=O)N2CCC(N3CCOCC3)CC2)ccc1Nc1cc(NCCS(C)(=O)=O)c2c(Cl)c[nH]c2n1"
OUT: > 7.00

IN: Next compound up: "COCC(C)(C)Nc1nc(Nc2ccc(C(=O)N3CCOCC3)c3c2OCCO3)nc2[nH]cc(C#N)c12"
OUT: > 7.00

IN: Next compound up: "N#Cc1c[nH]c2nc(Nc3ccc(C(=O)N4CC(CO)(CO)C4)c4c3OCCO4)nc(N[C@H]3CCOC3)c12"
OUT: > 7.00

IN: Next compound up: "CC(C)Oc1nn(CCO)c2c1/C=C/c1n[nH]c3ccc(cc13)-c1cnn(C)c1O[C@H](C)CN(C(C)C)C2"
OUT: 7.50

IN: Next compound up: "COc1cc(S(=O)(=O)N2CCC(N3CCOCC3)CC2)ccc1Nc1nc(NCC2CC2)c2c(C#N)c[nH]c2n1"
OUT: 6.00 to 6.52

IN: Next compound up: "CCn1ncc2c1O[C@@H](C)CN(C)Cc1c(c(OC(C)C)nn1CCO)/C=C/c1n[nH]c3ccc-2cc13"
OUT: 9.33

IN: Next compound up: "CNc1cc(Nc2ccc(S(=O)(=O)N3CCC(N4C[C@@H]5C[C@H]4CO5)CC3)cc2OC)nc2[nH]cc(C(F)(F)F)c12"
OUT: > 7.00

IN: Next compound up: "COc1cc(S(=O)(=O)N2CCOCC2)ccc1Nc1cc(NC2CCC2)c2c(C(F)(F)F)c[nH]c2n1"
OUT: 6.00 to 6.52

IN: Next compound up: "COc1cc(S(C)(=O)=O)ccc1Nc1cc(NC2CCCCC2)c2cc[nH]c2n1"
OUT: 6.00 to 6.52

IN: Next compound up: "CCCCNc1nc(Nc2ccc(C(=O)N3CCN(C4COC4)CC3)c3c2OCCO3)nc2[nH]cc(C(F)(F)F)c12"
OUT: > 7.00
